target: AURKA (human) (UniProt O14965); test: radiometric filter-binding kinase assay, Kinase HotSpot; conditions: compound 0.5 µM; ATP 10 µM
Sequence (O14965 whole entry, looked up): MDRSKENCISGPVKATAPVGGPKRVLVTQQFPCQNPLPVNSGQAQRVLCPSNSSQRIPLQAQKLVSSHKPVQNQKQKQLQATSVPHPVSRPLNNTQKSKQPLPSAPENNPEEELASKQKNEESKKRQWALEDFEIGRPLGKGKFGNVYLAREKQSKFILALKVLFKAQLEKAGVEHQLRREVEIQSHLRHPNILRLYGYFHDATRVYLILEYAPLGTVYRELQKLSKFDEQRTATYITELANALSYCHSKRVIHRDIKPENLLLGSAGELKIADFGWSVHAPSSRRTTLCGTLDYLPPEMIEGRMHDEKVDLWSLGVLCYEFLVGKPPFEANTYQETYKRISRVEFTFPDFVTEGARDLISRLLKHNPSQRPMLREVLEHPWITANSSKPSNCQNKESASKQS
In plain terms, low residual activity, meaning strictly below 90%, gives MET, and everything else gives NOT MET.

Here are 4 compounds together with their reported answers.
compound_smiles | label_value
Ic1cccc(CSc2nnc(-c3ccncc3)o2)c1 | NOT MET
COc1ccc(C(=O)Nc2sc3c(c2C(N)=O)CCCC3)cc1OC | NOT MET
COc1ccc(Cl)cc1NC(=O)Nc1cc(C)nc2ccccc12 | NOT MET
c1ccc2c(-c3ccncc3)c[nH]c2c1 | MET

Consider the record given below.
Item `O=C1C(Cl)=C(N2C(=O)CCC2=O)C(=O)c2ccccc21` : residual activity beneath 90%, strictly? NOT MET
